- target_or_system: hCE1 (human liver CE; CES1) (Homo sapiens)
- Sequence (P23141 18-563 limits assumed): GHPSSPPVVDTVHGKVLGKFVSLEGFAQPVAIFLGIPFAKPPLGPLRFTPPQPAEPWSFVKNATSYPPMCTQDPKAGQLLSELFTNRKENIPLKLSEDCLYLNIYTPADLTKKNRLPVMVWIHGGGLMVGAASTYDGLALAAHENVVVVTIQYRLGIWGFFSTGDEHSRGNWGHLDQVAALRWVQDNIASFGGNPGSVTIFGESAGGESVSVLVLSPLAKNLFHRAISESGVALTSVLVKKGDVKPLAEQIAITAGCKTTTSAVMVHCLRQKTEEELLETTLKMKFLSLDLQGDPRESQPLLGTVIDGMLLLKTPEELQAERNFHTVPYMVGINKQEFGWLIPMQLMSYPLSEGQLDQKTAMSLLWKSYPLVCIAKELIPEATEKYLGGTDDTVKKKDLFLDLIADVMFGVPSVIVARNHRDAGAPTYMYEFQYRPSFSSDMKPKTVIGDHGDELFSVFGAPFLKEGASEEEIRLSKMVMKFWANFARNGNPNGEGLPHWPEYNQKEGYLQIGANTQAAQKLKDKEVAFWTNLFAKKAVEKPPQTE
- procedure_text: Inhibition of hCE1 with o-nitrophenyl acetate
pIC50: −log10 of the molar value.
measure_name: pIC50

| smiles_code | measure_name | value_measured |
| --- | --- | --- |
| C[C@H]1COc2c1c(=O)oc(=O)c1c3c(ccc21)C(C)(C)CCC3 | pIC50 | 8.87 |
| Cc1coc2c1c(=O)oc(=O)c1c3c(ccc12)C(C)(C)CCC3 | pIC50 | 8.98 |

Each recorded value in this set is attributed to paper PMC6263802.
